testedTarget: human Hv1 E153A (E^2.53A) (Homo sapiens, UniProt Q96D96, E153A)
experimentalProtocol: Whole-cell voltage clamp, Zn^2+ modulation of GAQ gating
appliedConditions: read-out: Mean IC50 @ VSTEP; VSTEP 40 mV; pH 6.5; mean of fits in separate cells
endpoint: IC50 (µM)
Respond with the bare value in µM.

Given "[Cl-].[Cl-].[Zn+2]" , respond with its IC50. 241

---

testedTarget: human Hv1 H140A (H^2.40A) (Homo sapiens, UniProt Q96D96, H140A)
Sequence (Q96D96 1-273 H140A): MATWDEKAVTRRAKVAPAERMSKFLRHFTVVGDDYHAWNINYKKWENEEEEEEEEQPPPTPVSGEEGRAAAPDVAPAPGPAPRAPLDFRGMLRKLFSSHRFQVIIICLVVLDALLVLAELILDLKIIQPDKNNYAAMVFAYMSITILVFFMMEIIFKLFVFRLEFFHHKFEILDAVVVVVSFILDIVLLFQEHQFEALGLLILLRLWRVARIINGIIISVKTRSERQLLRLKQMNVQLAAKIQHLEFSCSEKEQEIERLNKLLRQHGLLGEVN
experimentalProtocol: Whole-cell voltage clamp, Zn^2+ modulation of GAQ gating
appliedConditions: read-out: IC50, fit of the mean data to a Hill function; Fig. 2C
endpoint: IC50 (µM)
The response must be a number in µM with no trailing unit.

With human Hv1 H140A (H^2.40A) (Homo sapiens, UniProt Q96D96, H140A) as the test system, provide measured IC50 for this compound: "[Cl-].[Cl-].[Zn+2]" 39

---

testedTarget: human Hv1 D130H-H140A (Homo sapiens, UniProt Q96D96, D130H/H140A)
experimentalProtocol: Whole-cell voltage clamp, Zn^2+ modulation of GAQ gating
Type: cell-based
appliedConditions: read-out: Mean IC50 @ VSTEP; VSTEP 80 mV; pH 6.5; mean of fits in separate cells
endpoint: IC50
Just the number plus its unit, please.

Return IC50 for the following compound: [Cl-].[Cl-].[Zn+2] [Zn^2+, ZnCl2] 41.5 µM

---

testedTarget: human Hv1 D185H (D^3.61H) (Homo sapiens, UniProt Q96D96, D185H)
experimentalProtocol: Whole-cell voltage clamp, Zn^2+ modulation of GAQ gating
appliedConditions: read-out: IC50, fit of the mean data to a Hill function; Fig. 4D
endpoint: pIC50
Give only the number. pIC50 is defined as minus log10 of concentration in molar units.

Give human Hv1 D185H (D^3.61H) (Homo sapiens, UniProt Q96D96, D185H) pIC50 for the following molecule: "[Cl-].[Cl-].[Zn+2]" 5.19

---

testedTarget: human Hv1 D123H (D^1.62H) (Homo sapiens, UniProt Q96D96, D123H)
Sequence (Q96D96 1-273 D123H): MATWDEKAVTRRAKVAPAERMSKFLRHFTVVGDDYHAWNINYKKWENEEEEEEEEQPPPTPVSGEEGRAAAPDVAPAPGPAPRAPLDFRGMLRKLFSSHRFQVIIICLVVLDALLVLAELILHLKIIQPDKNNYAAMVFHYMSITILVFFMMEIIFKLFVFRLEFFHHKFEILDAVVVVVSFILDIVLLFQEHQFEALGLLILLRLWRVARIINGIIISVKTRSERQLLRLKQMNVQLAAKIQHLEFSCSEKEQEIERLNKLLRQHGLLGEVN
experimentalProtocol: Whole-cell voltage clamp, Zn^2+ modulation of GAQ gating
Assay type: cell-based
appliedConditions: read-out: IC50, fit of the mean data to a Hill function; Fig. 4B
endpoint: pIC50
Convention used: pIC50 is expressed as -log10 of the molar concentration.

Please list pIC50 recorded for the molecule "[Cl-].[Cl-].[Zn+2]" 5.60

---

testedTarget: human Hv1 H193A (H^3.71A) (Homo sapiens, UniProt Q96D96, H193A)
Sequence (Q96D96 1-273 H193A): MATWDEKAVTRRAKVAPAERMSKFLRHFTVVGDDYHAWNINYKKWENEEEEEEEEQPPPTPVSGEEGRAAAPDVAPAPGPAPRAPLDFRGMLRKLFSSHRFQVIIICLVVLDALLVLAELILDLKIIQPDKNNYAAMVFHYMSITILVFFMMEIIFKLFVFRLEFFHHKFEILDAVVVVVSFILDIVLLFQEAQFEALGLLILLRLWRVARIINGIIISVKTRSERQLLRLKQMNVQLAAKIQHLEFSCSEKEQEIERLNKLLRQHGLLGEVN
experimentalProtocol: Whole-cell voltage clamp, Zn^2+ modulation of GAQ gating
appliedConditions: read-out: IC50, fit of the mean data to a Hill function; Fig. 2C
endpoint: pIC50
Please note pIC50 is a logarithmic value: minus log10 of concentration in mol/L. Answer with that number alone.

State its pIC50 for this compound: [Cl-].[Cl-].[Zn+2] [Zn^2+, ZnCl2] 4.09

---

testedTarget: human Hv1 D130H-H193A (Homo sapiens, UniProt Q96D96, D130H/H193A)
experimentalProtocol: Whole-cell voltage clamp, Zn^2+ modulation of GAQ gating
Assay type: cell-based
appliedConditions: read-out: IC50, fit of the mean data to a Hill function; Fig. 4C
endpoint: IC50 (µM)
Express your answer in µM, writing the number without its unit.

Look up and report measured IC50 (human Hv1 D130H-H193A (Homo sapiens, UniProt Q96D96, D130H/H193A)) for the following molecule: "[Cl-].[Cl-].[Zn+2]" 5.6

---

testedTarget: human Hv1 D185H-H193A (Homo sapiens, UniProt Q96D96, D185H/H193A)
Sequence (Q96D96 1-273 D185H/H193A): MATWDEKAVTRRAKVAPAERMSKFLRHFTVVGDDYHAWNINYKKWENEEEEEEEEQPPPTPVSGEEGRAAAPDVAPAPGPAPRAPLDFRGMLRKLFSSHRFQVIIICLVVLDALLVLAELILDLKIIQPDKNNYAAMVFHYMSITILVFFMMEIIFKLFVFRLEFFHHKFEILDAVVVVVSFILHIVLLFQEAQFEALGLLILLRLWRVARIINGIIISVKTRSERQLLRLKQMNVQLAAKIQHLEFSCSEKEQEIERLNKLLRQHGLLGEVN
experimentalProtocol: Whole-cell voltage clamp, Zn^2+ modulation of GAQ gating
Format: cell-based
appliedConditions: read-out: IC50, fit of the mean data to a Hill function; Fig. 4D
endpoint: IC50

Report measured IC50; entry is "[Cl-].[Cl-].[Zn+2]" 26.7 µM

---

testedTarget: human Hv1 D112H (Homo sapiens, UniProt Q96D96, D112H)
experimentalProtocol: Whole-cell voltage clamp, Zn^2+ modulation of GAQ gating
appliedConditions: read-out: Mean IC50 @ VSTEP; VSTEP 130 mV; pH 6.5; determined from tail current
endpoint: pIC50
By convention, pIC50 is the negative base-10 log of a molar concentration.

Quick one: give measured pIC50 for "[Cl-].[Cl-].[Zn+2]" 2.94

---

testedTarget: human Hv1 E119H (E^1.58H) (Homo sapiens, UniProt Q96D96, E119H)
experimentalProtocol: Whole-cell voltage clamp, Zn^2+ modulation of GAQ gating
appliedConditions: read-out: IC50, fit of the mean data to a Hill function; Fig. 3C
endpoint: IC50 (µM)
// note: answer is a bare numeric in µM

Kindly indicate its recorded IC50. Item: "[Cl-].[Cl-].[Zn+2]" 0.6

---

testedTarget: human Hv1 D123H-H193A (Homo sapiens, UniProt Q96D96, D123H/H193A)
experimentalProtocol: Whole-cell voltage clamp, Zn^2+ modulation of GAQ gating
Format: cell-based
appliedConditions: read-out: Mean IC50 @ VSTEP; VSTEP 80 mV; pH 6.5; mean of fits in separate cells
endpoint: pIC50
Just the number, please; pIC50 means minus log10 of the concentration in mol/L.

Entry "[Cl-].[Cl-].[Zn+2]" needs its pIC50 filled in; supply it. 4.44

---

testedTarget: human Hv1 D123H-H140A (Homo sapiens, UniProt Q96D96, D123H/H140A)
experimentalProtocol: Whole-cell voltage clamp, Zn^2+ modulation of GAQ gating
Format: cell-based
appliedConditions: read-out: IC50, fit of the mean data to a Hill function; Fig. 4B
endpoint: IC50

Respond only with IC50 recorded for "[Cl-].[Cl-].[Zn+2]" 20.5 µM

---

testedTarget: human Hv1 E119A-H193A (Homo sapiens, UniProt Q96D96, E119A/H193A)
Sequence (Q96D96 1-273 E119A/H193A): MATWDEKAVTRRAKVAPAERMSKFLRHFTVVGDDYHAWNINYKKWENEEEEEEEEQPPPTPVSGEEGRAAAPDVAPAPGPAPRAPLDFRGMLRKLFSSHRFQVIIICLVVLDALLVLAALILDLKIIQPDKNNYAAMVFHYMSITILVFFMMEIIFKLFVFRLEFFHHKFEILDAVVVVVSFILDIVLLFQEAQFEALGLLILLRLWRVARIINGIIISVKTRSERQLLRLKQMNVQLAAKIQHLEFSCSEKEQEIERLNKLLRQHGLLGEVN
experimentalProtocol: Whole-cell voltage clamp, Zn^2+ modulation of GAQ gating
appliedConditions: read-out: IC50, fit of the mean data to a Hill function; Fig. 4A
endpoint: pIC50
Conceptually, pIC50 converts a concentration in mol/L into minus its log10.

Recall and state the measured pIC50 for "[Cl-].[Cl-].[Zn+2]" . 3.56

src = paper PMC5987874
